experiment-notes: NCI Yeast Anticancer Drug Screen. Data for the rad18 strain (AID 177)
measurement-parameters: S. cerevisiae rad18 mutant growth inhibition; at 100.0 µM
Compounds without any hit were thinned out: in the full panel of roughly 79,000, 15% have a hit. Calls of active or inactive are those of the source. No stated cut-off is given here; in the data, active means growth inhibition above about 70%; inactive means the rest.
Outcomes: true (active), false (inactive)

> print(dat)
                                    molecule  discrete.label
 1  CC(=O)CC(c1ccccc1)c1c(O)c2ccccc2oc1=O (stereo unspecified)            true
 2  COc1ccc(C(C)c2cc3c(cc2OC(C)O)OCO3)cc1 (stereo unspecified)            true
 3  CC(=O)Oc1ccc2c(c1)Cc1cc(N3C(=O)C=CC3=O)ccc1-2            true
 4  C[N+](C)([O-])CCCNc1c2ccccc2nc2cccc([N+](=O)[O-])c12            true
 5  Cc1cccc(C)c1NC(=O)C(C#N)C1=C(Cl)C(=O)c2ccccc2C1=O (stereo unspecified)            true
 6       Cc1c2c(nc3ccccc13)C(=O)c1cccnc1C2=O            true
 7  O=C(NOC(=O)c1ccc([N+](=O)[O-])cc1)c1ccc(Cl)cc1            true
 8           Oc1ccc(C2(c3ccc(O)cc3)CCCC2)cc1            true
 9  S=C1C(=Nc2ccccc2)N(c2ccccc2)/C(=N\c2ccccn2)N1c1ccccc1            true
10            O=C(O)c1ccc2cc(Cl)c3ccccc3c2c1           false
11  Nc1ccc(S(=O)(=O)Nc2nc3c(c(=O)[nH]2)CCCC3)cc1            true

====

experiment-notes: NCI Yeast Anticancer Drug Screen. Data for the rad52 strain (AID 147);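 further: 0% = growth of vehicle-treated control cultures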
measurement-parameters: S. cerevisiae rad52 mutant growth inhibition; at 33.0 µM; hits give high values
This is part of a sample that, as a whole, favours compounds with a hit. Of some 79,000 tested, about 15% had one in any assay.
Class (required): determined from growth inhibition; valid ranges are band A: < 10%; band B: ≥ 10% and < 50%; band C: ≥ 50%

> print(dat)
                                    molecule  discrete.label
 1  C=C(C(=O)OC)N1C(=O)CC(C)C1=O (stereo not given)          band B
 2          C/C(=N/NC(=S)Nc1ccccc1C)c1ccccn1          band B
 3  Cc1c2cc[n+](CCO)cc2c(C)c2c1[nH]c1ccc(O)cc12          band C
 4  CCCCCCNCCCNc1c2cc(OC)ccc2nc2cccc([N+](=O)[O-])c12          band C
 5  O=C1C[C@H]2[C@H](c3ccc(Br)cc3)[C@H]3C(=O)c4ccccc4NC(=O)[C@@H]3[C@@]2(O)c2ccccc2N1          band B
 6  CCCCN(CCCC)c1ccc(N=Nc2ccc(S(=O)(=O)O)cc2)cc1          band C
 7  O=C(O)/C=C\C(=O)Nc1ccc2c(c1)Cc1cc(Cl)ccc1-2          band A
 8  CCCCCCCCN1COCC(COc2ccccc2C)OC1 (stereo not given)          band B
 9  CC12CCC(CC(=O)/C1=C(/Br)I)C2(C)C (stereo not given)          band B
10  NC(CS)C(=O)NCCNc1ccc(NCCNC(=O)C(N)CS)c2c1C(=O)c1c(O)ccc(O)c1C2=O (stereo not given)          band C
11  NC(N)=NS(=O)(=O)c1ccc(Nc2c3ccccc3nc3c(C(=O)NC(CO)(CO)CO)cccc23)cc1          band C
12  CC(C(=O)N1C(=O)N(C(=O)C(C)C(O)c2ccccc2)C2CCCCC21)C(O)c1ccccc1 (stereo not given)          band B
13             Cc1ccc(Nc2n[nH]c(=S)s2)c(C)c1          band A
14  O=C(NNc1ccccc1)C(CCCCNS(=O)(=O)Cc1ccccc1)NS(=O)(=O)Cc1ccccc1 (stereo not given)          band B
15  C[n+]1c(-c2ccc(/C=N/NC(=O)c3ccc(C(=O)N/N=C/c4ccc(-c5cn6ccccc6[n+]5C)cc4)cc3)cc2)cn2ccccc21          band C
16  Cc1cc(OCc2nc(N)nc(N)c2-c2ccc(Cl)c(Cl)c2)ccc1[N+](=O)[O-]          band A
17  CCCCCCCCCCCCCCCCCCNc1nc(=O)n(C2CC(OP(=O)(O)OCC3OC(n4cc(F)c(=O)[nH]c4=O)CC3O)C(CO)O2)cc1F (stereo not given)          band B
18  c1cc(-c2sc(-c3ccncc3)c(-c3ccncc3)c2-c2ccncc2)ccn1          band C
19  COc1ccc(C(C)c2cc3c(cc2OC(C)O)OCO3)cc1 (stereo not given)          band A

====

experiment-notes: NCI Yeast Anticancer Drug Screen. Data for the sgs1 mgt1 strain (AID 161);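 further: 0% = growth of cultures given vehicle only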
measurement-parameters: S. cerevisiae sgs1 mgt1 strain, at 50.0 µM
Compounds without any hit were thinned out: in the full panel of roughly 79,000, 15% have a hit. Active and inactive are the calls of the source. No stated cut-off is given here; in the data, active means growth inhibition above about 70%; inactive means the rest.
Outcomes: active, inactive

> print(dat)
                                    compound  discrete.label
 1  O=CC1(F)CC1(c1ccccc1)c1ccccc1 (centres undefined)        inactive
 2  c1ccc2c(c1)N=C1CCCC3CCCC123 (centres undefined)          active
 3                            O=Cc1ccccc1C=O        inactive
 4  CCOC(=O)C(Cc1c2ccccc2cc2ccccc12)(NC(C)=O)C(=O)OCC          active
 5            Nc1ccc2c(c1)C(=O)c1c(F)cccc1-2        inactive
 6             COC(=O)/C(C#N)=C\NC(=S)C(N)=S          active
 7  N#CCCC1C(C#N)C2(Cl)CC1(Cl)C(Cl)=C2Cl (centres undefined)          active
 8  O=[N+]([O-])c1cccc2nc3ccccc3c(NCCCN3CCCCC3)c12          active
 9           CCC(C)(C)c1ccc(Oc2ccccc2)c(N)c1          active
10  O=[N+]([O-])c1ccc(S(=O)(=O)Cc2ccccc2)c([N+](=O)[O-])c1          active
11  CC1CN(/N=C\c2ccc([N+](=O)[O-])o2)C(=O)O1 (centres undefined)          active
12  O=C(Cc1ccccc1)NNc1nc(NNC(=O)c2ccncc2)nc(Nc2ccc([N+](=O)[O-])cc2)n1          active
13          CCOC(=O)/C(=C\c1cccc(C)c1)C(C)=O          active
14         O=C1Nc2ccc(Br)cc2C1=Nc1ccc(Cl)cc1        inactive
15  O=[N+]([O-])c1ccc2[nH]c3c(-c4ccccc4)nccc3c2c1          active
16  COc1ccccc1/C=C\C(=O)C1COCN1 (centres undefined)          active
17  NC(CS)C(=O)NCCNc1ccc(NCCNC(=O)C(N)CS)c2c1C(=O)c1c(O)ccc(O)c1C2=O (centres undefined)          active
18  CCC(C)COC(=O)Nc1cccc(Cl)c1 (centres undefined)          active
19       Clc1ccc(/C(=C\c2ccccc2)Cn2ccnc2)cc1          active
20  c1ccc([P+](CCN2Cc3ccccc3C2)(c2ccccc2)c2ccccc2)cc1          active
21  CC1=NN(C(=O)c2ccccc2O)C(=O)/C1=C/c1ccco1          active
22  C[n+]1c(-c2ccc(/C=N/NC(=O)c3ccc(C(=O)N/N=C/c4ccc(-c5cn6ccccc6[n+]5C)cc4)cc3)cc2)cn2ccccc21          active
23           COC(=O)c1ccccc1N=NNc1cccc(SC)c1          active
24                CCC(=O)Nc1ccc(N=NN(C)C)cc1        inactive

====

// values below are reported growth inhibition
experiment-notes: NCI Yeast Anticancer Drug Screen. Data for the CLN2oe strain (AID 163);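 further: 0% = growth of vehicle-only control cultures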
measurement-parameters: S. cerevisiae CLN2oe strain, at 33.0 µM, hits give high values
This is part of a sample that, as a whole, favours compounds with a hit. Of some 79,000 tested, about 15% had one in any assay. Calls of active or inactive are those of the source. No stated cut-off is given here; in the data, active means growth inhibition above about 70%; inactive means the rest.
quantity-name: growth inhibition

> print(dat)
                                    molecule       test.value
 1  CC1(C)CC(=O)C(/C=N/c2nc(-c3ccc(Br)cc3)cs2)=C(O)C1     93% (active)
 2  Cc1cccc(C)c1NC(=O)CCC(=O)C(C)C(=O)c1ccc(O)cc1 (stereo unspecified)    1% (inactive)
 3         CC(=O)/C=C/c1cccc([N+](=O)[O-])c1    6% (inactive)
 4                  CC(C)C(c1ccccc1)c1ccccc1    1% (inactive)
 5                N#Cc1nc(Nc2ccc(Cl)cc2)sc1N   58% (inactive)
 6  Cc1ccc([N+](=O)[O-])c2c(NCCC[N+](C)(C)[O-])c3ccccc3nc12  -21% (inactive)
 7  Cc1ccc(S(=O)(=O)NC(=O)C2C(=O)CC3(CCCCC3)CC2=O)cc1     77% (active)
 8  CC(C)NCCCNc1c2ccccc2nc2cccc([N+](=O)[O-])c12     97% (active)
 9      O=C(O)C(=Cc1ccc(-c2ccccc2)cc1)C(=O)O   56% (inactive)
10          O=c1c2ccccc2nc(-c2ccc(Cl)cc2)n1O     73% (active)
11  C/C(=N\OCC(O)CNCCSCc1ccccc1)c1ccccc1Cl (stereo unspecified)   47% (inactive)

meta.source: PubChem BioAssay (NCI)
